Below, each entry is listed alongside its reported pIC50.
Assay: Cytotoxicity against mouse J774.1 cells after 24 hrs by AlamarBlue based cytotoxicity assay
Type: cell-based
Settings: J774.1, 24 h
pIC50 here: minus log base 10 of the concentration, concentration in moles per litre.

COc1ccc2nc3c(c(NCCCCCCCCCNc4c5c(nc6ccc(OC)cc46)CCCC5)c2c1)CCCC3 :: 5.77

# input For the molecule shown here, CC1CCc2c(nc3cc(Cl)ccc3c2NCCCCCCNc2c3c(nc4cc(Cl)ccc24)CC(C)CC3)C1 (centres undefined) , give the reported pIC50.
# output 5.82

# input For the molecule CCOC1CCc2nc3cc(Cl)ccc3c(NCCCCCCCCCNc3c4c(nc5cc(Cl)ccc35)CCC(OCC)C4)c2C1 (centres undefined) , what pIC50 is on record?
# output 5.76

# input Query: pIC50; subject: CC1CCc2nc3cc(Cl)ccc3c(NCCCCCCNc3c4c(nc5cc(Cl)ccc35)CCC(C)C4)c2C1 (centres undefined)
# output 5.11

###

Assay: Selectivity index, ratio of IC50 for mouse J774.1 cells to IC50 for chloroquine-sensitive ring-stage Plasmodium falciparum 3D7
Type: toxicity
Conditions: read-out: Ratio IC50
measured-endpoint: selectivity ratio
Give your answer as a number; write no unit.

Use these answered entries as a reference point.
CCOC1CCc2nc3cc(Cl)ccc3c(NCCCCCCCCCNc3c4c(nc5cc(Cl)ccc35)CCC(OCC)C4)c2C1 (stereo not drawn) :: 9
CC1(C)CCc2c(nc3ccc([N+](=O)[O-])cc3c2NCCCCCCNc2c3c(nc4ccc([N+](=O)[O-])cc24)CC(C)(C)CC3)C1 :: 198
c1ccc2c(NCCCCCCCNc3c4c(nc5ccccc35)CCCC4)c3c(nc2c1)CCCC3 :: 27.1
c1ccc2c(NCCCCCCNc3c4c(nc5ccccc35)CCCC4)c3c(nc2c1)CCCC3 :: 29.7
Clc1ccc2c(NCCCCCCNc3c4c(nc5cc(Cl)ccc35)CCCC4)c3c(nc2c1)CCCC3 :: 90

# input Record request: selectivity ratio value, item CC1(C)CCc2c(nc3ccccc3c2NCCCCCCNc2c3c(nc4ccccc24)CC(C)(C)CC3)C1
# output 60

# input Requested field: selectivity ratio. Item: COc1ccc2nc3c(c(NCCCCCCCCCNc4c5c(nc6ccc(OC)cc46)CCCC5)c2c1)CCCC3
# output 15

# input Name the recorded selectivity ratio for c1ccc2c(NCCCCCNc3c4c(nc5ccccc35)CCCC4)c3c(nc2c1)CCCC3 .
# output 2.86

###

Experiment: Selectivity index, ratio of IC50 for mouse J774.1 cells to IC50 for chloroquine-sensitive ring-stage Plasmodium falciparum 3D7
Type: toxicity
Conditions: read-out: Ratio IC50
List of selectivity ratio values.

Solved entries:
CC1(C)CCc2c(nc3cc(Cl)ccc3c2NCCCCCCNc2c3c(nc4cc(Cl)ccc24)CC(C)(C)CC3)C1 :: 50
c1ccc2c(NCCCCCCCCCCNc3c4c(nc5ccccc35)CCCC4)c3c(nc2c1)CCCC3 :: 16.4
c1ccc2c(NCCCCCCCCNc3c4c(nc5ccccc35)CCCC4)c3c(nc2c1)CCCC3 :: 17.3

# input Consider the compound CC1CCc2c(nc3ccc([N+](=O)[O-])cc3c2NCCCCCCNc2c3c(nc4ccc([N+](=O)[O-])cc24)CC(C)CC3)C1 (stereo unspecified) and give its measured selectivity ratio.
# output 1250

# input GET /values?readout=selectivity ratio&item= CC1CCc2nc3cc(Cl)ccc3c(NCCCCCCNc3c4c(nc5cc(Cl)ccc35)CCC(C)C4)c2C1 (stereo unspecified)
# output 260

# input Recorded selectivity ratio of CC1CCc2c(nc3cc(Cl)ccc3c2NCCCCCCNc2c3c(nc4cc(Cl)ccc24)CC(C)CC3)C1 (stereo unspecified) , please.
# output 30
